Source of measurements: ChEMBL document CHEMBL5518196

- assay notes: Half-life in male ICR mouse at 62.5 mg/kg, ip measured after 24 hrs by LC-MS/MS analysis
- Assay type: ADME, organism-based
- condition summary: in vivo
assay readout: half-life (h)
Answers are plain numbers, in h.

INPUT: Look up and report measured half-life for this entry: COCCCCNC(=O)c1cccc(C2N(c3ncccc3OC)C(=O)CS2(=O)=O)n1 (racemic)
OUTPUT: 1.53

###

- assay notes: Clearance in male ICR mouse at 12.5 mg/kg, iv measured after 24 hrs by LC-MS/MS analysis
- Assay type: ADME, organism-based
- condition summary: in vivo
assay readout: clearance (mL/min/kg)
Numbers only, in mL/min/kg.

INPUT: For COCCCCNC(=O)c1cccc(C2N(c3ncccc3OC)C(=O)CS2(=O)=O)n1 (racemic) , write its clearance.
OUTPUT: 126

###

- assay notes: Antiproliferative activity against BMSC (unknown origin) assessed as inhibition of cell growth incubated for 72 hrs by CCK8 assay
- Assay type: functional, cell-based
assay readout: IC50 (nM)
One number for each entry, in nM.

INPUT: State, in one line, measured IC50 of COCCCCNC(=O)c1cccc(C2N(c3ncccc3OC)C(=O)CS2(=O)=O)n1 (racemic)
OUTPUT: 2130

###

- assay notes: AUC (0 to infinity) in male ICR mouse at 12.5 mg/kg, iv measured after 24 hrs by LC-MS/MS analysis
- Format: ADME, organism-based
- condition summary: in vivo
assay readout: AUC(0-inf) (ng·h/mL)
Numbers only, in ng·h/mL.

INPUT: Please list AUC(0-inf) recorded for the compound COCCCCNC(=O)c1cccc(C2N(c3ncccc3OC)C(=O)CS2(=O)=O)n1 (racemic)
OUTPUT: 1660

###

- assay notes: Bioavailability in male ICR mouse at 62.5 mg/kg, ip measured after 24 hrs by LC-MS/MS analysis
- Format: ADME, organism-based
- condition summary: in vivo
assay readout: bioavailability (%)
One number for each entry, in %.

INPUT: Tell us which bioavailability value is on record for COCCCCNC(=O)c1cccc(C2N(c3ncccc3OC)C(=O)CS2(=O)=O)n1 (racemic)
OUTPUT: 115

###

Give measured IC50 for each item. Keep answers brief.
- Test system: HOS-TE85
- assay notes: Antiproliferative activity against human MNNG/HOS cells assessed as inhibition of cell growth incubated for 72 hrs by CCK8 assay
- Assay type: functional, cell-based
- condition summary: HOS-TE85, 72 h
Give bare numbers, in nM.

// below: answered compounds
| compound | subject of test | unit descriptor | IC50 |
| --- | --- | --- | --- |
| O=C(NCCCCc1ccccc1)c1cccc(C2N(c3ccc(F)cn3)C(=O)CS2(=O)=O)n1 (centres undefined) | HOS-TE85 | nM | 20 |
| C#Cc1cc(C(=O)NCCCCc2ccccc2)cc(C2N(c3ccccn3)C(=O)CS2(=O)=O)c1 (centres undefined) | HOS-TE85 | nM | 32 |
| Cc1ccnc(N2C(=O)CS(=O)(=O)C2c2cccc(C(=O)NCCCCc3ccccc3)c2)c1 (centres undefined) | HOS-TE85 | nM | 71 |
| Cc1ccc(N2C(=O)CS(=O)(=O)C2c2cccc(C(=O)NCCCCc3ccccc3)n2)nc1 (centres undefined) | HOS-TE85 | nM | 31 |
| O=C(NCCCCn1cccn1)c1cccc(C2N(c3ccccn3)C(=O)CS2(=O)=O)n1 (centres undefined) | HOS-TE85 | nM | 979 |
| Cc1cccc(N2C(=O)CS(=O)(=O)C2c2cccc(C(=O)NCCCCc3ccccc3)n2)n1 (centres undefined) | HOS-TE85 | nM | 775 |
| Cc1ccnc(N2C(=O)C[S+]([O-])C2c2cccc(C(=O)NCCCCn3cccn3)n2)c1 (centres undefined) | HOS-TE85 | nM | 8290 |
| O=C(NCCCCc1ccccc1)c1cccc(C2N(c3cccc(F)c3)C(=O)CS2(=O)=O)n1 (centres undefined) | HOS-TE85 | nM | 17 |

Please look at the items below and tell me IC50 for each one, in order.
1. Cc1ccnc(N2C(=O)CS(=O)(=O)C2c2cccc(C(=O)NCCCCn3cccn3)n2)c1 (centres undefined)
2. O=C(NCCCCc1ccccc1)c1cccc(C2N(c3ccc4ccccc4c3)C(=O)CS2(=O)=O)c1 (centres undefined)
3. COc1cccnc1N1C(=O)CS(=O)(=O)C1c1cccc(C(=O)NCCCCc2ccccc2)n1 (centres undefined)
4. O=C(NCCCCc1ccccc1)c1cccc(C2N(c3ncccc3O)C(=O)CS2(=O)=O)n1 (centres undefined)

OUTPUT:
1: 924; 2: 474; 3: 6; 4: 45

###

- System: HOS-TE85
- assay notes: Antiproliferative activity against human MNNG/HOS cells assessed as inhibition of cell growth incubated for 72 hrs by CCK8 assay
- Assay type: functional, cell-based
- condition summary: HOS-TE85, 72 h
Hi there, I'd appreciate the recorded pIC50 for every entry that follows.
Give bare numbers, as −log10 of the molar value.

| molecule | result number |
| --- | --- |
| COCCCCNC(=O)c1cccc([C@@H]2N(c3ncccc3OC)C(=O)CS2(=O)=O)n1 | 6.95 |
| Cc1cc(N2C(=O)CS(=O)(=O)C2c2cccc(C(=O)NCCCCc3ccccc3)c2)no1 (configuration not stated) | 6.35 |

Okay, here is my list. What is pIC50 for each of these?
1. COCCCNC(=O)c1cccc(C2N(c3ccccn3)C(=O)CS2(=O)=O)n1 (configuration not stated)
2. O=C(NCCCCc1ccccc1)c1cccc(C2N(c3cccc(F)c3)C(=O)C[S+]2[O-])c1 (configuration not stated)
3. COCCCCNC(=O)c1cccc(C2N(c3ccc(F)cn3)C(=O)CS2(=O)=O)n1 (configuration not stated)
4. Cc1ccnc(N2C(=O)CS(=O)(=O)C2c2cccc(C(=O)NCCCCc3ccccc3)n2)c1 (configuration not stated)

OUTPUT:
[6.03, 7.08, 6.55, 7.48]

Give one value of pIC50 per listed molecule.
1. CCCCNC(=O)c1cccc(C2N(c3ccccn3)C(=O)CS2(=O)=O)n1 (configuration not stated)
2. COCCCCNC(=O)c1cccc([C@H]2N(c3ncccc3OC)C(=O)CS2(=O)=O)n1
3. COCCCCNC(=O)c1cccc([C@H]2N(c3ccc(F)cn3)C(=O)CS2(=O)=O)n1

OUTPUT:
6.38
7.15
6.86

Would you mind giving pIC50 for every molecule in the list below?
1. O=C(NCCCCc1ccccc1)c1cccc(C2N(c3cccc(F)c3)C(=O)CS2(=O)=O)c1 (configuration not stated)
2. COCCCCNC(=O)c1cccc(C2N(c3ncccc3OC)C(=O)CS2(=O)=O)n1 (racemic)
3. Cc1cc(N2C(=O)C[S+]([O-])C2c2cccc(C(=O)NCCCCc3ccccc3)c2)no1 (configuration not stated)
4. COc1ccnc(N2C(=O)CS(=O)(=O)C2c2cccc(C(=O)NCCCCc3ccccc3)n2)c1 (configuration not stated)
5. O=C(NCCCCc1ccccc1)c1cccc(C2N(c3ccccc3)C(=O)C[S+]2[O-])n1 (configuration not stated)
6. O=C(NCCCCc1ccccc1)c1ccc(C2N(c3ccccc3)C(=O)CS2(=O)=O)o1 (configuration not stated)
7. O=C(NCCCCc1ccccc1)c1cccc(C2N(C3CCCCC3)C(=O)CS2(=O)=O)c1 (configuration not stated)

OUTPUT:
1: 6.99; 2: 6.66; 3: 6.45; 4: 6.75; 5: 6.59; 6: 7.39; 7: 5.69

Give measured pIC50 for every item shown.
1. O=C(NCCCCc1ccccc1)c1cccc(C2N(c3cccc4cccnc34)C(=O)CS2(=O)=O)c1 (configuration not stated)
2. COCCCCNC(=O)c1cccc([C@@H]2N(c3ccc(F)cn3)C(=O)CS2(=O)=O)n1
3. COCCCCNC(=O)c1cccc(C2N(c3ncccc3C)C(=O)CS2(=O)=O)n1 (configuration not stated)
4. Cc1cccnc1N1C(=O)CS(=O)(=O)C1c1cccc(C(=O)NCCCCc2ccccc2)n1 (configuration not stated)
5. COc1cccc(N2C(=O)CS(=O)(=O)C2N(CCCCc2ccccc2)C(=O)c2ccccc2)c1 (configuration not stated)
6. COc1ccccc1N1C(=O)CS(=O)(=O)C1c1cccc(C(=O)NCCCCc2ccccc2)c1 (configuration not stated)

OUTPUT:
7.60
6.57
6.15
7.30
7.17
7.51

###

- Tested on: HOS-TE85
- assay notes: Antiproliferative activity against human MNNG/HOS cells assessed as inhibition of cell growth incubated for 72 hrs by CCK8 assay
- Format: functional, cell-based
- condition summary: HOS-TE85, 72 h
pIC50: −log10 of the molar value.
Assign pIC50 to each entry below.

Example entries and their recorded answers appear below.
| compound | pIC50 |
| --- | --- |
| O=C(NCCCCc1ccccc1)c1cccc(C2N(c3ccccc3)C(=O)CS2(=O)=O)n1 (configuration not stated) | < 5.00 |
| CCN(CC)C(=O)CCCNC(=O)c1cccc(C2N(c3ccccn3)C(=O)CS2(=O)=O)n1 (configuration not stated) | < 6.00 |
| O=C(NCCCCc1ccccc1)c1cccc(C2N(c3cccc(F)n3)C(=O)CS2(=O)=O)n1 (configuration not stated) | < 6.00 |
| O=C(NCCCCc1ccccc1)c1cc(-c2ccccc2)cc(C2N(c3ccccc3)C(=O)CS2(=O)=O)c1 (configuration not stated) | < 5.00 |
| O=C(NCCCCc1ccccc1)c1cccc(C2N(C3CCOCC3)C(=O)CS2(=O)=O)c1 (configuration not stated) | < 5.00 |
| CN(CCCCc1ccccc1)C(=O)c1cccc(C2N(c3ccccc3)C(=O)CS2(=O)=O)c1 (configuration not stated) | < 5.00 |

Query compound follows.
INPUT: Name the recorded pIC50 of the compound listed here: O=C(NCCCCc1ccccc1)c1cccc(C2N(Cc3ccccc3)C(=O)CS2(=O)=O)c1 (configuration not stated)
OUTPUT: < 5.00
